# Protocol Details: Human HepG2 cell viability assay in 384 well format
# Format: toxicity, cell-based
# Parameters: dose 125 nL, time 70.5 hour; concentration not given beside the values
# Condition: HepG2 cells, read-out: Inhibition
Reported cytotoxicity at 70.5 h values for a set of molecules
Measure: cytotoxicity at 70.5 h (%)

- Cc1cc(NC(=O)C(C)N2CCN(c3nc(C)ns3)CC2)on1 (stereo not drawn): 4.54
- Brc1ccc(NCCCOC2CCOCC2)nc1: -1.01
- COc1ncccc1CNC(=O)NCCNS(C)(=O)=O: -2.56
- CSCCC(NC(=O)c1ccco1)C(=O)N(C)Cc1ccsc1 (stereo not drawn): -4.71
- O=C1N(c2ccsc2)CCC12CCCN(c1ncc(F)cn1)C2 (stereo not drawn): -9.83
- O=C(NCc1ncc(-c2ccccc2)o1)NC1CCC(O)CC1 (stereo not drawn): -7.39
- Cc1ccc(CN2CC[C@@H]3O[C@@H](C(=O)N4CCN(C)CC4)C[C@@H]32)cc1: -1.43
- CC(=O)NCc1nc(CC(C)C)nn1-c1cccc(C)c1: -2.35
- Cc1c(C(C)Nc2ncnc3sccc23)cnn1C (stereo not drawn): -8.04
- CN(C)CCCn1ccnc1C1CCN(C(=O)Cc2cccnc2)CC1: 9.19
- O=C(c1ccco1)N1CCC(n2nc(-c3ccco3)ccc2=O)CC1: -3.82
- O=C(NC1CC1)N1CCC2(CC1)C(=O)NCCN2Cc1ccccc1: -13.6
- CCc1n[nH]c(C2CN(C(=O)c3ccc4c(c3)CCC4)CCO2)n1 (stereo not drawn): -2.27
- COc1ccc(F)c(CN2CCCC3(CCN(C(=O)CSC)C3)C2)c1 (stereo not drawn): 8.81
- COc1cc(N2CCC3(CCN(Cc4csc(C)n4)C3)CC2)ncn1: -5.2
- Cc1oncc1C(=O)N[C@@H]1CN(Cc2ccco2)C[C@@H]2CCCO[C@@H]21: -3.33
- Cn1ccnc1COc1ccc(CN2CCN(CCO)CC2)cc1: 15
- Nc1cc(CCC2CN(Cc3ccc(C(=O)O)cc3)CCO2)ccn1 (stereo not drawn): 23.8

====

# Protocol Details: Human HepG2 cell viability assay in 384 well format
# Assay type: toxicity, cell-based
# Set-up: dose 125 nL, time 70.5 hour; concentration not given beside the values
# Condition: HepG2 cells, read-out: Inhibition
Measure: cytotoxicity at 70.5 h (%)

- Cc1nc(COCc2nc3c(o2)CN(C(=O)c2ccoc2)C3)cs1: -7.05
- Cn1cc(Nc2cccc(C(=O)N(CC(N)=O)C3CCCC3)c2)cn1: -3.71
- O=C(c1ccccn1)N1C[C@@H]2CC[C@H](C1)N(C(=O)CCC(F)(F)F)C2: -3.18
- CC(SCCS(C)(=O)=O)c1nc(Cc2ccc(F)cc2)no1 (stereo unspecified): -0.925
- CCOC(=O)C1CN(S(=O)(=O)C2CC2)Cc2ncn(CC)c21 (stereo unspecified): 11
- CCc1nc(C2CCCN2C(=O)c2ccc(N3CCCC3)nn2)no1 (stereo unspecified): -3.36
- CCNC(=O)NC(=O)CNc1cccc(C(=O)c2ccccc2)c1: -12.7
- CC(NC(=O)NCCCn1cncn1)c1ccc(C(F)(F)F)cc1 (stereo unspecified): -7.5
- NCc1cnn(-c2ccccc2C(=O)NCc2ccncc2)c1: -8.5
- COc1cc(COCC2CCN(Cc3cccnc3)CC2)cc(OC)c1: -1.2
- N#Cc1ccccc1C(=O)N1C[C@H](CO)C[C@H](CN2CCCC2)C1: -8.82
- CO[C@H]1CN(C(=O)OC(C)(C)C)CC1NCc1ccn(C)c1 (stereo partly specified): -6.04
- Cc1ccc(C(=O)NCCCNS(C)(=O)=O)cc1-n1cccc1: -4.62
- CCC1=N[C@@]2(CC[C@@H]3CN(C(=O)NCc4cccc(F)c4)C[C@@H]32)C(=O)N1: -5.99
- Brc1cccnc1OC1CCNCC1: 23.3
- CCCn1c(C)c(CC(=O)N(C)CCOC)c2c1CC(C)(C)CC2=O: -7.09
- CN(C)CCN1CC2(CCC1=O)CCN(C(=O)c1ccn(C)n1)CC2: -2.52
- Cc1nn(C)c2nc(N3CCCC3c3nccs3)sc12 (stereo unspecified): -12.1
- Cn1nc(CN2CCCC2)c2c1CN(c1cnccn1)CC2: -3.39
- Cc1nc[nH]c1CN1CCN(C(=O)c2cccs2)[C@H]2CS(=O)(=O)C[C@H]21: -8.73
- Cc1ccc(C)c(N2CCN(CC3(O)CCNC3)CC2)c1 (stereo unspecified): -0.198
- CCCn1[nH]cc/c1=N\C(=O)CN1CCn2c(nnc2C2CC2)C1: 8.11
- O=S(=O)(C1CC1)N1CCC2(CCCN(Cc3ccccn3)C2)CC1: -5.17
- CCOC(C)C(=O)N1CCCN(Cc2csc(CC)n2)CC1 (stereo unspecified): 22.4
- COc1ccc2c(ccn2CCC(=O)NCc2ccc(C(=O)O)cc2)c1: -13.5
- Cc1cc(F)ccc1N1CCCC(NC(=O)CCc2ccncc2)C1 (stereo unspecified): -23.5
- Cn1cc(C2COC3(CCN(C(=O)c4cccc(O)c4)CC3)C2)cn1 (stereo unspecified): -11.7
- Cc1cc(Oc2ccccc2)nc(C2CCN(CCO)CC2)n1: -6.09
- CCOc1cc(CN(C)CCOC)ccc1OC(F)F: 12.4
- Cc1ccc(=O)n(CC(=O)N2CCCC(c3nc(C)c(C)s3)C2)n1 (stereo unspecified): -5.44
- CCNC(=O)NCCc1csc(N2CCCC2)n1: -9.41
- N#Cc1c(N2CCN(CC3CCOC3)CC2)nc2ccccn12 (stereo unspecified): -1.45
- Nc1ccnc(-c2cc(NC3CCNCC3)nc3[nH]ccc23)c1: -3.27
- Cc1cnn(C2CN(CC(=O)Nc3cccnc3)C2)c1: -9.68
- CO[C@H]1CCN(c2ccc(C)nn2)[C@H]1Cc1cnn(C)c1: 5.26
- CC(=O)N(Cc1ncc(C)o1)C1CCN(CCCc2cnn(C)c2)C1 (stereo unspecified): 13.3
- CC(C)CN1C[C@H]2C[C@H](C(=O)NC3CCC3)[C@@H](C1)O2: -1.14
- CCC(C(=O)NCC1CCN(c2cnn(C)c(=O)c2)CC1)n1cccn1 (stereo unspecified): -7.23
- Cc1cccc(N2CCC(N3CCCC4(CN(C)C(=O)O4)C3)CC2)c1C (stereo unspecified): -9.98
- CCNC(=O)NC(=O)CN(CC(C)O)c1ccccc1 (stereo unspecified): -7.42
- O=C(c1ccsc1)N1CCc2c(COCc3ccncc3)cncc2C1: -9.93

====

# Protocol Details: Human HepG2 cell viability assay in 384 well format
# Type: toxicity, cell-based
# Set-up: dose 125 nL, time 70.5 hour; concentration not given beside the values
# Condition: HepG2 cells, read-out: Inhibition
Measure: cytotoxicity at 70.5 h (%)

- C[C@@H]1C[C@@H]2CCN(Cc3ccccn3)C[C@H]2O1: -5.42
- Cc1cccc2c1cnn2CCCNC(=O)c1cnn(C)c1: -2.01
- O=C(Nc1ccc(OC(F)F)cc1)N1CCC(c2nnc[nH]2)CC1: -2.12
- CC(CN1CCCC1=O)NC(=O)c1ccc(C(F)(F)F)[nH]c1=O (centres undefined): -74.6
- Cc1nc(-c2ccsc2)sc1C(=O)N1CCn2c(C)nnc2C1: -0.696
- CC(C)N1[C@H](Cn2cncn2)C[C@@H]2CN(c3ncccn3)CC[C@@H]21: -0.391
- O=c1[nH]c(-c2ccccc2F)nc2c1CCNC2: 14.4
- COC(=O)NCCC(=O)NC(C)Cc1cccc(Br)c1 (centres undefined): 2.65
- OCCn1nccc1C1CCN(CCOc2ccccc2Cl)CC1: -0.941
- Cc1nc(C2CCCN2C(=O)c2ccc(N(C)C)nn2)no1 (centres undefined): 25.8
- O=C(c1cnccn1)N1C[C@@H]2[C@@H](C1)OCC(=O)N2CC1CCCC1: 1.12
- CCSC1=Nc2c(cnn2-c2ccc(Cl)cc2)C2=NCCCN12: -7.4
- CCC1(CO)CCCN(C(=O)c2cc(COc3cccc(F)c3)[nH]n2)C1 (centres undefined): -3.53
- Cc1cccc(OCCN2CCN(Cc3noc(C)n3)CC2)c1: -2.75

====

# Protocol Details: Human HepG2 cell viability assay in 384 well format
# Type: toxicity, cell-based
# Design: dose 125 nL, time 70.5 hour; concentration not given beside the values
# Condition: HepG2 cells, read-out: Inhibition
Measure: cytotoxicity at 70.5 h (%)

• COc1ccc2c(ccn2CCC(=O)N[C@H](C(=O)O)C(C)C)c1 = -8.62
• CS(=O)(=O)c1cccc2c1CCCN2C(=O)Cc1cccc(F)c1 = -2.8
• Cc1ccc(CNC(=O)NC2CCN(CC(F)F)CC2)cc1 = -4.96
• Clc1cncc(NCc2cccc(OCCN3CCOCC3)c2)n1 = -8.21
• COc1ncccc1C(=O)NCCn1cnc(C)cc1=O = -2.32
• CC(NCC(=O)N(C)C1CC1)c1ccc(S(C)(=O)=O)c(F)c1 (centres undefined) = -9.06
• CC(=O)N1CCC(C(=O)N2CCC(=Cc3cccc(F)c3)CC2)CC1 = -11.3
• COCCC(=O)NCCCOC1CCCc2ccccc21 (centres undefined) = 1.55
• Cc1cc(NCCCC(F)(F)F)n2nc(C)cc2n1 = -1.87
• CC(C)Cc1nc(CN2CC(=O)N(C)c3ccccc3C2=O)no1 = 2.18
• COc1c(CNCCNC(=O)c2ccc(C)c(F)c2)c(C)nn1C = -4.84
• O=C1CCCN1CCCN1CCCC1Cn1cccn1 (centres undefined) = 8.99
• CCOc1cc(C(=O)N2CCN(C)CC2)cc2occc12 = 3.95
• CC(NC(=O)Cn1cccnc1=O)c1ccc(OC(F)(F)F)cc1 (centres undefined) = -8.28
• Cn1cc(CN2C[C@@H]3OCCN(CC4CCCC4)[C@@H]3C2)cn1 = -7.97
• CCCn1nnnc1CN(C)C(C)c1ccc(C)cc1 (centres undefined) = -5.6
• CC(C)[C@H]1CN(Cc2ccccn2)C[C@@H]1NS(=O)(=O)C1CC1 = -3.34
• O=C(O)CCC(=O)N1CCN(CC2CC2)c2ncccc2C1 = 22.2
• Clc1ccccc1C1(c2ccnc(-c3ccncc3)n2)CCNCC1 = -5.92
• Cc1ccsc1CN(Cc1nc2c(cnn2C)c(=O)[nH]1)C(C)C = 2.45
• Cc1cn2c(n1)CCC(NC(=O)CCC1CC1)C2 (centres undefined) = -3.09
• Cc1oncc1C(=O)N1CCC2(CC1)C(c1cnn(C)c1)CC(=O)N2C (centres undefined) = -9.68
• Cc1noc(Cl)c1CCC(=O)N1CCN(c2ccccc2)CC1 = 7.33
• Cc1noc(C)c1S(=O)(=O)NC(=O)COc1ccc2c(c1)CCC2 = -13.5
• CN(C)CC(=O)N1CC2(CCN(Cc3ccccc3)C2)C1 = 35.2
• Cc1nc(C2CCCN2C(=O)CN(C)Cc2ccccc2)no1 (centres undefined) = -2.86
• COCC(Nc1ncnc2sc(C)c(C)c12)c1ccnn1C (centres undefined) = -4.15
• CN(Cc1ccccc1)C1(C(=O)NCC(N)=O)Cc2ccccc2C1 = 5.7
• COCCN1C(=O)CC[C@@H]2[C@H]1CCN2C(=O)C1CCOCC1 = -7.67
• CCNC(=O)NCCCn1nc2ccccn2c1=O = -9.28
• CC(C)CC1SCC(=O)Nc2c1cnn2-c1ccccc1F (centres undefined) = -22.8
• CC(=O)N[C@@H]1CN(C(=O)c2cc3sccc3[nH]2)C[C@H]1c1ccc(C)o1 = -3.33
• CC(C)(C)C(=O)N1C[C@H](c2ccsc2)[C@H]2CN(C3CCCC3)CC[C@H]21 = -4.45
• CCOC(=O)c1cnn(C2CCN(C(=O)CC3C=CCC3)CC2)c1N (centres undefined) = -1.64
• Cc1nc(CN(C)c2nc3c(cnn3C(C)(C)C)c(=O)[nH]2)cs1 = 8.98
• N#Cc1cccc(CNc2ccc(F)cc2OCCO)c1 = -6.47
• Cc1nccn1-c1ccc(N2CCC(N[C@H](C)C(C)C)CC2)cc1 = 0.757
• CC(C)CCC(=O)N1CCN(C(C)c2nnc(CC(C)C)o2)CC1 (centres undefined) = 23.3
• NC1CCc2c(ccc(=O)n2CC2CC2)C1 (centres undefined) = 27.6
